Cited source: paper PMC9482650

Biological target: T1, HTRA4, P83105
T1 sequence (P83105 378-476, limits assumed, looked up): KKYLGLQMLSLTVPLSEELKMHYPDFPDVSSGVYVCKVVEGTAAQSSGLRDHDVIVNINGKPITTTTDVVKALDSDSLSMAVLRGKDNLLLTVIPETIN
Experiment: holdup assay
Parameters: key: below the threshold = too weak to quantify, mostly under pKd 3.1 to 4
Conditions: plain residues with an end cap or a label only (N-terminal biotin on a linker: ado-ado)
Assign True to entries whose pKd meets or exceeds 4; assign False to the rest.

>>> label_class("KKTPVSRSHL [SLC22A3, O75751]")
"False"
>>> label_class("PALKNGQYWV [CSPG4, Q6UVK1]")
"True"
>>> label_class("MLPANYVEAI [NEB, P20929]")
"False"
>>> label_class("PLPPEEESWV [GAS2L2, Q8NHY3]")
"False"
